system: HCC-2998 colon; assay: NCI tumour cell line growth inhibition, 48 h
measured_metric: TGI (µM)
Numeric only. Scale: µM

Solved cases below.
COC(=O)/C=C1\C(=O)N(C(C)=O)c2ccccc21 | 31.4
CC(=O)O/N=C1\C=Cc2c(no[n+]2[O-])C1=O | 38.7

[ask] Return reported TGI; argument: COC1=C(NC(C)=O)C(=O)c2nc3n(c2C1=O)CCC3
[reply] 65.8

[ask] // next record COc1ccc(C2CC(c3cccc(Nc4ccnc5cc(Cl)ccc45)c3)=NN2c2ccccc2)cc1 (centres undefined)
[reply] 11.5

[ask] // next record O=C(N/C(=C\c1cc(Cl)ccc1Cl)c1nc2ccccc2[nH]1)c1ccccc1
[reply] 37.8

[ask] // next record NS(=O)(=O)OC[C@H]1O[C@@H](n2cnc3c(N[C@H]4CCc5ccccc54)ncnc32)[C@H](O)[C@@H]1O
[reply] 0.331

====

test system: MDA-MB-231 breast; assay: NCI tumour cell line growth inhibition, 48 h
Form field: TGI (one value per entry).

Solved cases below.
CS(=O)(=O)c1nc(-c2cc3c(c(S(C)(=O)=O)n2)CCC3)cc2c1CCC2 | > 100 µM
Nc1nc(Cl)cc2c1ncn2C1OC(CO)C(O)C1O (centres undefined) | > 100 µM
COc1cc(C2C3=C(COC3=O)N(CCO)c3cc4c(cc32)OCCO4)cc(OC)c1O (centres undefined) | > 50 µM
CCOC(=O)C(NC(=O)Nc1ccccc1)(Nc1cccc(Cl)c1)C(F)(F)F (centres undefined) | > 100 µM
Clc1ccc2nc3c(c(-c4ccccc4)nn3-c3ccccc3)c(-c3ccccc3)c2c1 | > 100 µM
Cc1ccc(N=c2oc3c(ccc4ccccc43)nc2Nc2ccc(C)cc2)cc1 | > 100 µM
COc1cc(C2CC(c3ccc(C)cc3)=NN2C(C)=O)ccc1Oc1ccnc2cc(Cl)ccc12 (centres undefined) | > 100 µM
CN(CCN(C)Cc1ccc(Cl)c(Cl)c1)CCN1CCCC1 | > 96.1 µM

Would you kindly look at the next entry?
[ask] Return reported TGI; argument: COc1ccc2c(c1)Cc1cc(N=[N+]([O-])c3ccc4c(c3)Cc3cc(OC)ccc3-4)ccc1-2
[reply] > 100 µM

====

Form field: TGI (one value per entry).
system: MOLT-4 leukemia; test: NCI tumour cell line growth inhibition, 48 h

Solved cases below.
CS(=O)(=O)c1ccc(C2=C(c3ccccc3)C(=O)OC2)cc1 | > 100 µM
CC(CC(C)[C@H]1CCC2[C@H]3C(CC[C@@]21C)[C@@]1(C)CCC(O)C[C@H]1C[C@@H]3O)C(=O)O (some centres undefined) | > 100 µM
COc1cc2[nH]c(=O)[nH]c2c2c(C)c[nH]c12 | > 100 µM

[ask] Return reported TGI; argument: c1ccc(C[P+]2(c3ccccc3)CCCCC2)cc1
[reply] > 100 µM

[ask] // next record COc1ccc2c(c1)C(CCN)C(=O)N2 (centres undefined)
[reply] > 100 µM

[ask] // next record N#CCCN(CCN(CCN(C(=O)Nc1ccccc1)c1ccccc1)C(=O)Nc1ccccc1)C(=O)Nc1ccccc1
[reply] > 100 µM

[ask] // next record COc1cccc(-n2cnc3c(N/N=C/c4ccncc4)ncnc32)c1
[reply] > 25 µM

[ask] // next record CN(C)c1ccc(C(=C2C=CC(=[N+](C)C)C=C2)c2c(O)c(S(=O)(=O)[O-])cc3cc(S(=O)(=O)O)ccc23)cc1
[reply] > 100 µM

[ask] // next record O=c1c2ccccc2oc2nccnc12
[reply] > 100 µM
